Tested on: SK-OV-3 ovarian
Assay: NCI-60 one-dose screen, 48 h (100 = growth as untreated, 0 = no growth, -100 = all killed)
Settings: 10 µM unless noted
This is part of a sample that, as a whole, favours compounds with a hit. Of some 83,000 tested, about 20% had one in any assay.
Each record here notes measured growth.
Please state the figure in %; there is no need to write the unit.

Examples with their reported growth follow.
>  <smiles-data>
COc1ccc2c(c1)nc(N)c1c3ccccc3cn21

>  <growth [%]>
85.6

$$$$
>  <smiles-data>
O=c1[nH]c(Cl)nc2c1cnn2-c1ccccc1

>  <growth [%]>
110

$$$$
>  <smiles-data>
COc1cc(/C=C/C(=O)c2c(-c3ccc(F)cc3)nc3sc(C)nn23)cc(OC)c1OC

>  <growth [%]>
15.5

$$$$
>  <smiles-data>
O=C(CCc1nnc(Cn2cncn2)o1)c1nc2ccccc2[nH]1

>  <growth [%]>
116

$$$$
>  <smiles-data>
CC[C@@H]1OC(=O)[C@H](C)[C@@H](O[C@H]2C[C@@](C)(OC)[C@@H](O)[C@H](C)O2)[C@H](C)[C@@H](O[C@@H]2O[C@H](C)C[C@H](N(C)C)[C@H]2O)[C@](C)(O)C[C@@H](C)[C@@H]2N[C@@H](COCCOC)O[C@H]([C@H]2C)[C@]1(C)O

>  <growth [%]>
109

$$$$

Noted for "O=C(Nc1cccc(-n2cc(-c3ccncc3)c(-c3ccc(O)c(Cl)c3)n2)c1)Nc1ccc(Cl)c(C(F)(F)F)c1" : its growth reads 4.82

Reported growth ( "COc1ccc2[nH]c(-c3ccccc3)cc2c1" ) = 110

Memo: "COc1cc(/C=C/c2nnc(-c3cc(-c4ccccc4)n[nH]3)o2)cc(OC)c1OC" , reported growth: 88.7
